Assay Target: α4β1 integrin (Jurkat cell adhesion to immobilized CS-1 derived peptide CLHPGEILDVPST) (Homo sapiens, UniProt P05556+P13612)
Construct: 100 μl of Jurkat cells (2.5×10^6 cells/ml) in DMEM plus BSA; endogenous in cells
Sequence (P13612 34-1032): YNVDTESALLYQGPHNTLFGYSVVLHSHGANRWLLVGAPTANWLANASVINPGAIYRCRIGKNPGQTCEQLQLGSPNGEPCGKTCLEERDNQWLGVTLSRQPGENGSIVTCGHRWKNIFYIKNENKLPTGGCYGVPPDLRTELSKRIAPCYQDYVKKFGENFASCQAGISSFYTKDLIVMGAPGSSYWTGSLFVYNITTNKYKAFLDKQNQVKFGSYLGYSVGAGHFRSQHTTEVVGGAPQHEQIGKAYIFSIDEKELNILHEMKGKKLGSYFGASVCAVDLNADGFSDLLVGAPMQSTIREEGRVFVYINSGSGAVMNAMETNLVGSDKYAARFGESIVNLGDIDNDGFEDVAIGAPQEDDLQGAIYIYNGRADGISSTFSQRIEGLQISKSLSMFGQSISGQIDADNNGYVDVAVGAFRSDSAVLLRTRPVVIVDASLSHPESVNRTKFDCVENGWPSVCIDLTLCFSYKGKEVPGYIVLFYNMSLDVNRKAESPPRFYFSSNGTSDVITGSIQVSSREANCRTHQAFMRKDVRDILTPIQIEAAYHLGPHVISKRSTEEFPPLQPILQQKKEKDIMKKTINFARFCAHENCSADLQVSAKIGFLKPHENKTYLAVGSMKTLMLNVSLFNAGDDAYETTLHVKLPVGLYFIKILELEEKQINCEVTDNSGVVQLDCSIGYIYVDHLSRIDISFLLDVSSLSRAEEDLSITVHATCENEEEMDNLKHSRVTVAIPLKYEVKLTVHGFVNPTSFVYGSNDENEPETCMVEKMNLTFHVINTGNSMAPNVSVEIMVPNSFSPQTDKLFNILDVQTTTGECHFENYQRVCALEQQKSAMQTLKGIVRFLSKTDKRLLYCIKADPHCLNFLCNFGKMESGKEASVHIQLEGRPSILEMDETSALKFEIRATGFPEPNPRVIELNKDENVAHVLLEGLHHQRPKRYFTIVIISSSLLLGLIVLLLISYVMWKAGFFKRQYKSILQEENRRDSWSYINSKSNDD
Sequence (P05556 21-798): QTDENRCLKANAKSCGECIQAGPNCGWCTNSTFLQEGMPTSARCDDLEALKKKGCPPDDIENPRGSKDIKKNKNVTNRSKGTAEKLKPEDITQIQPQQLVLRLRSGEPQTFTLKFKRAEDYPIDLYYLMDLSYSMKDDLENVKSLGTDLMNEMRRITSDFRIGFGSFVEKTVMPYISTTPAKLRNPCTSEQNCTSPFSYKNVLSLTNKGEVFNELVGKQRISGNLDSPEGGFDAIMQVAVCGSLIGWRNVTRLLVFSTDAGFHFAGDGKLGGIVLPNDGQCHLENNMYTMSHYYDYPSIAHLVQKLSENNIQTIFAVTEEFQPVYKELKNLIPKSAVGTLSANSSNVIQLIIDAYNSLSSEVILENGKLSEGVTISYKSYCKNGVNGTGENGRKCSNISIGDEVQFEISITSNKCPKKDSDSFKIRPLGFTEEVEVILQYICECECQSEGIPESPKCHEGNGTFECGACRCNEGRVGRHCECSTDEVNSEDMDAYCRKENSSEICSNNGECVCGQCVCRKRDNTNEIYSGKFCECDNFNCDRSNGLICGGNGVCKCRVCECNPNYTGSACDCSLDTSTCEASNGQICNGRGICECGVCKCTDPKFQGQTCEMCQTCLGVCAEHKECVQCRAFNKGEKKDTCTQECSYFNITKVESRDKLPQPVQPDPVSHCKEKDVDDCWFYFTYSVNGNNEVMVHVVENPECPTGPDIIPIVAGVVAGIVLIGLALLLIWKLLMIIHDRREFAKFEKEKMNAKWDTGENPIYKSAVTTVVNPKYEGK
Assay Explanation: Jurkat-CS-1 Assay
Conditions Used: Jurkat cells on CS-1 peptide coated plates
pIC50: −log10 of the molar value. Counter-ions that a name gives are not always drawn.
The entries below come with measured pIC50 values attached.

Some compounds with recorded pIC50:
* CC1(C)[C@@H](C(=O)N[C@@H](Cc2ccc(NC(=O)C3Cc4ccccc4CN3)cc2)C(=O)O)CC[C@@]1(C)C(=O)O (stereo partly drawn) [Example 146] | 6.30 to 7.10
* CC1(C)[C@@H](C(=O)N[C@@H](Cc2ccc(NC(=O)c3c(Cl)cccc3Cl)cc2)C(=O)O)CC[C@@]1(C)C(=O)O [Example 54] | ≥ 7.10
* CC1(C)[C@@H](C(=O)N[C@@H](Cc2ccc(NC(=O)c3ccc4ccccc4c3)cc2)C(=O)O)CC[C@@]1(C)C(=O)O [Example 124] | 6.30 to 7.10

[ask] What pIC50 value was documented for this compound, CC1(C)[C@@H](C(=O)N[C@@H](Cc2ccc(NC(=O)c3ccccc3C(F)(F)F)cc2)C(=O)O)CC[C@@]1(C)C(=O)O [Example 108] ?
[reply] ≥ 7.10

[ask] # repeat for CC1(C)[C@@H](C(=O)N[C@@H](Cc2ccc(NC(=O)c3c(Cl)cccc3Cl)cc2)C(=O)O)CC[C@@]1(C)C(=O)NOCc1ccccc1 [Example 217]
[reply] ≥ 7.10

[ask] # repeat for CC1(C)[C@@H](C(=O)N[C@@H](Cc2ccc(NC(=O)c3c(Cl)cccc3Cl)cc2)C(=O)O)CC[C@@]1(C)C(=O)N1CCC[C@@H]1C(N)=O (relative stereo) [Example 212, monolithium salt]
[reply] 6.30 to 7.10

[ask] # repeat for CC(C)COC(=O)Nc1ccc(C[C@H](NC(=O)[C@H]2CC[C@@](C)(C(=O)O)C2(C)C)C(=O)O)cc1 [Example 141]
[reply] 6.00 to 6.30

[ask] # repeat for CC1(C)[C@@H](C(=O)N[C@@H](Cc2ccc(NC(=O)c3c(Cl)cccc3Cl)cc2)C(=O)O)CC[C@@]1(C)C(=O)N1CCOCC1 [Example 225]
[reply] ≥ 7.10

[ask] # repeat for COc1ccccc1C(=O)Nc1ccc(C[C@H](NC(=O)[C@H]2CC[C@@](C)(C(=O)O)C2(C)C)C(=O)O)cc1 [Example 95]
[reply] 6.30 to 7.10
